In this section, each of the compounds is paired with its reported Kb.
target: LHRH (Rattus norvegicus); construct: endogenous in cells; host or cells: rat pituitary cells (own knowledge of the cited Haviv 1989 method); assay: in vitro test for LHRH antagonist potency (pA2); assay type: cell-based; details: negative logarithm of the antagonist concentration required to shift the response curve produced by the agonist leuprolide to two-fold higher concentration
Sequence (P30969 whole entry): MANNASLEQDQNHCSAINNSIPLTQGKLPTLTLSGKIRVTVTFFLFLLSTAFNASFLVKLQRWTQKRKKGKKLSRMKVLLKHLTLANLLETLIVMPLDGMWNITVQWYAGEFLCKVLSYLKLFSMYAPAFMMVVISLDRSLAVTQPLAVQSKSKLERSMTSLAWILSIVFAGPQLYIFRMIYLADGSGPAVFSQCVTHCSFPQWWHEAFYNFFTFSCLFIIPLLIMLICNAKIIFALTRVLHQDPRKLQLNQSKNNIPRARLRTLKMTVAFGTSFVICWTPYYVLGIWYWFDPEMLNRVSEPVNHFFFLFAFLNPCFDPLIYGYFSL
Non-standard residues stand in square brackets, D forms with d. Residues, ends and D or L forms follow the SMILES beside them. Groups on a side chain read outwards from the residue. *: point of attachment. dAla(benzothien-2-yl) = N[C@H](Cc1cc2ccccc2s1)C(=O)O; Shikimoyl = O=C(C1=C[C@@H](O)[C@@H](O)[C@H](O)C1)*; dPhe(4-Cl) = N[C@H](Cc1ccc(Cl)cc1)C(=O)O; d2Nal = N[C@H](Cc1ccc2ccccc2c1)C(=O)O; Lys(iPr) = CC(C)NCCCC[C@H](N)C(=O)O; NMeY = CN[C@@H](Cc1ccc(O)cc1)C(=O)O; hArg = N=C(N)NCCCC[C@H](N)C(=O)O; d3Pal = N[C@H](Cc1cccnc1)C(=O)O; Nicotinoyl = O=C(c1cccnc1)*; azaGly = NNC(=O)O
Lab book: enter the figure in pM, no units written.

Illustrative cases are given below, each with its answer.
Compound: CC(C)C[C@H](NC(=O)[C@@H](CCCCNC(=O)NNC(=O)c1ccco1)NC(=O)[C@H](Cc1ccc(O)cc1)N(C)C(=O)[C@H](CO)NC(=O)[C@@H](Cc1cccnc1)NC(=O)[C@@H](Cc1ccc(Cl)cc1)NC(=O)[C@@H](Cc1ccc2ccccc2c1)NC(=O)CNC(=O)C1CCCO1)C(=O)N[C@@H](CCCCNC(C)C)C(=O)N1CCC[C@H]1C(=O)N[C@H](C)C(N)=O (mixture of isomers) [Example 30a]
Kb (pM): 47.9
--
Compound: CC(C)C[C@H](NC(=O)[C@@H](CCCCNC(=O)CNC(=O)C1=C[C@@H](O)[C@@H](O)[C@H](O)C1)NC(=O)[C@H](Cc1ccc(O)cc1)N(C)C(=O)[C@H](CO)NC(=O)[C@@H](Cc1cccnc1)NC(=O)[C@@H](Cc1ccc(Cl)cc1)NC(=O)[C@@H](Cc1ccc2ccccc2c1)NC(=O)CNC(=O)c1cccnc1)C(=O)N[C@@H](CCCCNC(=N)N)C(=O)N1CCC[C@H]1C(=O)N[C@H](C)C(N)=O [Example 25e] (Nicotinoyl-G[d2Nal][dPhe(4-Cl)][d3Pal]S[NMeY][dK]([Gly-Shikimoyl])L[hArg]P[dA]-NH2)
Kb (pM): 3.39
--
Compound: CC(C)C[C@H](NC(=O)[C@@H](CCCCNC(=O)c1cccnc1)NC(=O)[C@H](Cc1ccc(O)cc1)N(C)C(=O)[C@H](CO)NC(=O)[C@@H](Cc1cc2ccccc2s1)NC(=O)[C@@H](Cc1ccc(Cl)cc1)NC(=O)NNC(=O)c1cccnc1)C(=O)N[C@@H](CCCCNC(C)C)C(=O)N1CCC[C@H]1C(=O)N[C@H](C)C(N)=O [Example 32] (Nicotinoyl-[azaGly][dPhe(4-Cl)][dAla(benzothien-2-yl)]S[NMeY][dK](Nicotinoyl)L[Lys(iPr)]P[dA]-NH2)
Kb (pM): 14.1
--
Compound: CC(C)C[C@H](NC(=O)[C@@H](CCCCNC(=O)CNC(=O)c1cccnc1)NC(=O)[C@H](Cc1ccc(O)cc1)N(C)C(=O)[C@H](CO)NC(=O)[C@@H](Cc1cccnc1)NC(=O)[C@@H](Cc1ccc(Cl)cc1)NC(=O)[C@@H](Cc1ccc2ccccc2c1)NC(=O)CNC(=O)c1cccnc1)C(=O)N[C@@H](CCCCNC(C)C)C(=O)N1CCC[C@H]1C(=O)N[C@H](C)C(N)=O [Example 8] (Nicotinoyl-G[d2Nal][dPhe(4-Cl)][d3Pal]S[NMeY][dK]([Gly-Nicotinoyl])L[Lys(iPr)]P[dA]-NH2)
Kb (pM): 20.4

Read the next record carefully.
Problem: Dear colleague, I am looking for the recorded Kb of the following compound: CC(C)C[C@H](NC(=O)[C@@H](CCCCNC(=O)c1cccnc1)NC(=O)[C@H](CCCCNC(=O)c1cccnc1)NC(=O)[C@H](CO)NC(=O)[C@@H](Cc1cccnc1)NC(=O)[C@@H](Cc1ccc(Cl)cc1)NC(=O)[C@@H](Cc1ccc2ccccc2c1)NC(=O)C1=C[C@@H](O)[C@@H](O)[C@H](O)C1)C(=O)N[C@@H](CCCCNC(C)C)C(=O)N1CCC[C@H]1C(=O)N[C@H](C)C(N)=O [Example 73] (Shikimoyl-[d2Nal][dPhe(4-Cl)][d3Pal]SK(Nicotinoyl)[dK](Nicotinoyl)L[Lys(iPr)]P[dA]-NH2)
Result: 44.7
